Values compiled from paper PMC6467919.

- TARGET_OR_TEST_SYSTEM: T1, Human Cdc42 GTPase, wild type, residues 1-179 (human, UniProt P60953 1-179)
- T1 construct: four extra residues (Gly-Ser-Phe-Thr) from the expression vector left at the N-terminus of Cdc42; human Cdc42, residues 1-179; also called Cdc42WT; wild-type Cdc42; source: E. coli Rosetta, purified (HisTrap, TEV cleavage, second HisTrap, Superdex 75); not shown: His6, N-terminal, cleaved
- T1 sequence (P60953 other isoform, or with tags, fused parts or gaps): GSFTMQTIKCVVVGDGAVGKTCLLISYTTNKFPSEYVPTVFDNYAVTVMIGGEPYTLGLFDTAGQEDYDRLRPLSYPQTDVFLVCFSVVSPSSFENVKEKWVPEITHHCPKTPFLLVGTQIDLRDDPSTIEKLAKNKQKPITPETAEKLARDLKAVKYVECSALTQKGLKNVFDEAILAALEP
- ASSAY_EXPLANATION: other fluorescence titration; Kd from the fluorescence difference before mixing and at equilibrium at seven [GBD] values on the stopped-flow instrument; 0.1 μM mantGppNHp·Cdc42; 50 mM sodium phosphate pH 7.0, 5 mM MgCl2, 1 mM TECP, 25 °C; kd deduced as the product of Kd and ka
- APPLIED_CONDITIONS: both partners purified
ASSAY_READOUT: pKd
Scale: pKd equals -log10([C]), with [C] in mol/L.

Item GTPase-binding domain (GBD) of the Wiskott-Aldrich Syndrome protein (WASP), wild type, residues 228-298 (domain or fragment, human, two extra residues (Gly-Ser) from the thrombin recognition site left at the N-terminus of GBD; 15N labelled for the NMR experiment; also called GBDWT; wild-type GBD; source: E. coli Rosetta, purified (GSTrap, thrombin, 70 °C heat step, Superdex 75); not shown: GST, N-terminal, cleaved) GSSGKKKISKADIGAPSGFKHVSHVGWDPQNGFDVNNLDPDLRSLFSRAGISEAQLTDAETSKLIYDFIEDQG has what recorded pKd?
6.94
